Assay: SAXS of mixtures of GMO and excipient/active ingredient immersed in PBS (liquid crystal phase and lattice size)
Type: physicochemical
Conditions: Concentration in GMO 25%; first value of the cell (first phase listed)
Measured quantity: Lattice size (Å)

In [3]: df
Out[3]:
                                   molecule  measured_quantity  reported
0  CC(C)c1c(C(=O)Nc2ccccc2)c(-c2ccccc2)c(-c2ccc(F)cc2)n1CC[C@@H](O)C[C@@H](O)CC(=O)O [Atorvastatin]       Lattice size       102

====

Assay: SAXS of mixtures of GMO and excipient/active ingredient immersed in PBS (liquid crystal phase and lattice size)
Type: physicochemical
Settings: Concentration in GMO 20%; first value of the cell (first phase listed)
Experimental: The samples were then mixed via a roller mixer at ˜10 RPM at 40° C. for at least 3 days. One week prior to SAXS experiment, 100 mg samples were loaded into a transparent polystyrene 96 well plate (Nunc™) and immersed in 200 μL of PBS buffer (pH 6.8). […] Data were obtained at ambient temperature (˜22° C.). […] The 2-D diffraction images were recorded on a Pilatus 1M detector and radially integrated using the in-house software “ScatterBrain”.
Measured quantity: Lattice size (Å)

>>> print(df.to_string())
                                   compound  reported
0  CC(C)c1c(C(=O)Nc2ccccc2)c(-c2ccccc2)c(-c2ccc(F)cc2)n1CC[C@@H](O)C[C@@H](O)CC(=O)O       103
1  CCCCCCCC/C=C\CCCCCCCC(=O)OCCOCC(OCCO)C1OCC(OCCO)C1OCCO (centres unmarked)       138
